# measured.target: Recombinant human integrin αvβ1 (Homo sapiens (Human), UniProt P05556+P06756)
# Sequence (P06756 31-992): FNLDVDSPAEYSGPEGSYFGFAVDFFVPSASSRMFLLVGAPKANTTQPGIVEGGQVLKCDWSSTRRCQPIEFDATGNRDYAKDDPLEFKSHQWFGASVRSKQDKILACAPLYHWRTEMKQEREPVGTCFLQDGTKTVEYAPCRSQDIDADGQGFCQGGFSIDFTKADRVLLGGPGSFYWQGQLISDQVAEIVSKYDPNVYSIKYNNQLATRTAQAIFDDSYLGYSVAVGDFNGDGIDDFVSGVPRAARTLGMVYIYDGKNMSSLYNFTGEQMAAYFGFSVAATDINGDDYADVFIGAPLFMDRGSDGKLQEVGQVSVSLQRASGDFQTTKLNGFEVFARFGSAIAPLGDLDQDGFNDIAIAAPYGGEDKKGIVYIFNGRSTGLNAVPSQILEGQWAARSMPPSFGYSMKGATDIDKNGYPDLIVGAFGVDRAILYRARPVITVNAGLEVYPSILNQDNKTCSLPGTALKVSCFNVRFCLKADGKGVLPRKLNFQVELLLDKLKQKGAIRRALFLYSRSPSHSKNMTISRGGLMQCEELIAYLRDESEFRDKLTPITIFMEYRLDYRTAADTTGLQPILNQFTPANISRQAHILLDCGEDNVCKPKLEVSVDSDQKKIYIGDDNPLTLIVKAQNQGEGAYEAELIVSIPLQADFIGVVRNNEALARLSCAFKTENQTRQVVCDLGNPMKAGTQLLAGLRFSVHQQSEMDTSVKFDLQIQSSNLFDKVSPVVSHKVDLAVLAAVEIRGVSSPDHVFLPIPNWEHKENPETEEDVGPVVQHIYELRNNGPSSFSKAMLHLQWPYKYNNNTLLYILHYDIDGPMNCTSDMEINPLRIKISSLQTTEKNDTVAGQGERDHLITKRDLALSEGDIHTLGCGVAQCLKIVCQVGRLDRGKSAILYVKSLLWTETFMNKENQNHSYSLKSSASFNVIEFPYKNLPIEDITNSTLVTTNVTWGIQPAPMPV
# Sequence (P05556 21-728): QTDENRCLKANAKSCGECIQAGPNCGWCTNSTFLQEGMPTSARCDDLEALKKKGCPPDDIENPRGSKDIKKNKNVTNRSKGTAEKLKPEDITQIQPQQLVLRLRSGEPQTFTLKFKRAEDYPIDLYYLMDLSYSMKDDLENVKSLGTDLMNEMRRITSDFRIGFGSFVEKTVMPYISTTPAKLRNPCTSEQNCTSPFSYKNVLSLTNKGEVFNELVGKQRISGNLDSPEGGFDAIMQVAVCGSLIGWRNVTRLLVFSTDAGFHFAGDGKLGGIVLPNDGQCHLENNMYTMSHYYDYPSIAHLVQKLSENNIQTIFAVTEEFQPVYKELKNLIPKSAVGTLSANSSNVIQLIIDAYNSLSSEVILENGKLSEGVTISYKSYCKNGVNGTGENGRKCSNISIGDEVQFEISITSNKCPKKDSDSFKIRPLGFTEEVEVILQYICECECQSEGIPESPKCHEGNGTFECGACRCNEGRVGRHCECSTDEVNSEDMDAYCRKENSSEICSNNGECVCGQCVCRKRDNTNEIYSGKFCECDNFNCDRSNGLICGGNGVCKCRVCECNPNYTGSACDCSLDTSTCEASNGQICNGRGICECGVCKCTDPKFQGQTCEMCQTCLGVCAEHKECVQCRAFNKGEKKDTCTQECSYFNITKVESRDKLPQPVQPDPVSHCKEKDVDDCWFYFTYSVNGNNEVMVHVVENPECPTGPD
# protocol.description: Solid Phase Receptor Assay (SPRA) for αvβ1 function
# assay.context: fibronectin-coated plate
property.label: IC50 (nM)
Expressed in nM, but write only the number.

// known answers, use as guide
                                   compound  value_units  experimental_value
0  O=C(O)C[C@H](NC(=O)CNC(=O)c1cc(O)cc(NC2=NCC(O)CN2)c1)c1cc(Br)cc(C(F)(F)F)c1 (stereo partly shown)           nM                   2
1  O=C(O)C[C@H](NC(=O)CNC(=O)c1cncc(NC2=NCC(O)CN2)c1)c1cc(Cl)cc(C(F)(F)F)c1 (stereo partly shown)           nM                   1
2  O=C(O)C[C@H](NC(=O)CNC(=O)c1cc(O)cc(NC2=NCC(O)CN2)c1)c1cc(Cl)cc(C(F)(F)F)c1 (stereo partly shown)           nM                   2

What value of IC50 has been recorded for this entry: O=C(O)C[C@H](NC(=O)CNC(=O)c1cncc(NC2=NCC(O)CN2)c1)c1cc(Br)cc(C(F)(F)F)c1 (stereo partly shown) 1

What value of IC50 has been recorded for this entry: Cc1cc(Br)cc([C@H](CC(=O)O)NC(=O)CNC(=O)c2cc(O)cc(NC3=NCC(O)CN3)c2)c1 (stereo partly shown) 0.4

What value of IC50 has been recorded for this entry: Cc1cc(Cl)cc([C@@H](CC(=O)O)NC(=O)CNC(=O)c2cccc(NC3=NCCN3)c2)c1O [Example C11, reference compound] 16

What value of IC50 has been recorded for this entry: O=C(O)C[C@H](NC(=O)CNC(=O)c1cncc(NC2=NCC(O)CN2)c1)c1cc(Cl)cc(Br)c1 (stereo partly shown) 1
